The entries below are paired with their reported EC50.
Test system: HBV
Test: Anti-HBV activity, HepG2.2.15 stable transfected cell line, HBV DNA from secreted virions by realtime PCR
Format: cell-based
Conditions: Hepatitis B virus, 144 h; HepG2.2.15 cells, 6 days of treatment, HBV DNA from secreted virions; read-out: HepG 2.2.15 EC50
Endpoint label: EC50 (nM)

[
  {
    "Chemical string": "Cc1c(C(=O)C(=O)N[C@H](C)C(F)(F)F)cc(C(=O)Nc2ccc(F)c(C#N)c2)n1C",
    "Endpoint label": "EC50",
    "Lt gt eq": "<",
    "Value reported": 4
  },
  {
    "Chemical string": "Cc1c(C(=O)C(=O)NC(C)(C)C)c(Cl)c(C(=O)Nc2ccc(F)c(C#N)c2)n1C",
    "Endpoint label": "EC50",
    "Lt gt eq": "<",
    "Value reported": 4
  },
  {
    "Chemical string": "Cc1c(C(=O)C(=O)N[C@H](C)C(F)(F)F)c(Cl)c(C(=O)Nc2ccc(F)c(C#N)c2)n1C",
    "Endpoint label": "EC50",
    "Lt gt eq": "<",
    "Value reported": 4
  },
  {
    "Chemical string": "C[C@@H](NC(=O)C(=O)c1c(Cl)c(C(=O)Nc2ccc(F)c(C#N)c2)n(C)c1C1CC1)C(F)(F)F",
    "Endpoint label": "EC50",
    "Lt gt eq": "=",
    "Value reported": 12
  },
  {
    "Chemical string": "Cc1c(C(=O)C(=O)NC(C)(C)C)cn(C)c1C(=O)Nc1ccc(F)c(F)c1",
    "Endpoint label": "EC50",
    "Lt gt eq": "=",
    "Value reported": 9
  },
  {
    "Chemical string": "Cc1cc(NC(=O)c2cc(C(=O)C(=O)NC(C)(C)C)cn2C)ccc1F",
    "Endpoint label": "EC50",
    "Lt gt eq": "=",
    "Value reported": 15
  },
  {
    "Chemical string": "Cn1cc(C(=O)C(=O)NC2(C)COC2)cc1C(=O)Nc1cc(F)c(F)c(Cl)c1",
    "Endpoint label": "EC50",
    "Lt gt eq": "=",
    "Value reported": 29
  }
]
